Recorded kon by entry
Molecular target: T1, human serum albumin (human, UniProt P02768 25-609)
T1 construct: mature; Bought purified serum albumin; also called HSA; Human albumin
Assay: SPR, Fab captured; albumin taken as HSA;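 also: antibody captured on the sensor surface, albumin injected for a 3 min association phase, then dissociation followed, with signals corrected against a blank flow cell and buffer-only injections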
Report only the number, with the unit M⁻¹ s⁻¹ understood.

So what's the measured kon for this one? CA645 gL16gH5 Fab (Fab, V domains shown, Fab: human gamma1 CH1, human kappa (Km3); Kabat numbering) VH: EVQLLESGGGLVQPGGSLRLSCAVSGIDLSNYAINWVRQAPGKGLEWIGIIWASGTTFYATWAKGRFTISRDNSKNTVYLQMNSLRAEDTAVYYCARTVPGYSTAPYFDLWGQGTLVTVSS VL: DIQMTQSPSSVSASVGDRVTITCQSSPSVWWNFLSWYQQKPGKAPKLLIYEASKLTSGVPSRFSGSGSGTDFTLTISSLQPEDFATYYCGGGYSSISDTTFGGGTKVEIK
55300

So what's the measured kon for this one? CA645 gL15gH5 Fab (Fab, V domains shown, Fab: human gamma1 CH1, human kappa (Km3); Kabat numbering) VH: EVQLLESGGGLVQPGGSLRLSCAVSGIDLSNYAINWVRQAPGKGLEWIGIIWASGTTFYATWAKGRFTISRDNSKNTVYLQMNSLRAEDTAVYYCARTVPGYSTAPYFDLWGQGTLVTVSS VL: DIQMTQSPSSVSASVGDRVTITCQSSPSVWRNFLSWYQQKPGKAPKLLIYEASKLTSGVPSRFSGSGSGTDFTLTISSLQPEDFATYYCGGGYSSISDTTFGGGTKVEIK
60100

So what's the measured kon for this one? CA645 gL21gH5 Fab (Fab, V domains shown, Fab: human gamma1 CH1, human kappa (Km3); Kabat numbering) VH: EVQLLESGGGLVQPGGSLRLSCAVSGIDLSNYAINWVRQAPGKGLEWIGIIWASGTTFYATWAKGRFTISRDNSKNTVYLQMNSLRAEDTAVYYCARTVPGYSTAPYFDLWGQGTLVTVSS VL: DIQMTQSPSSVSASVGDRVTITCQSSPSVWENFLSWYQQKPGKAPKLLIYEASKLTSGVPSRFSGSGSGTDFTLTISSLQPEDFATYYCGGGYSSISDTTFGGGTKVEIK
51000
